# assayed-target: SNX27, Q96L92
# protocol-notes: holdup assay
# Set-up: key: below the threshold = too weak to quantify, mostly under pKd 3.1 to 4
# conditions: plain residues with an end cap or a label only (N-terminal biotin on a linker: ahx)
readout: pKd

INSERT INTO assay_data (binder, measured) VALUES
  ('GYDWGPATDL [TJP3, O95049]', 3.64),
  ('PSASCAVTAA [PDLIM4, P50479;P50479-2]', 'below the threshold'),
  ('NRKREIFSNF [NHERF2, Q15599]', 'below the threshold'),
  ('RRRKRKRTYL [HPV49-L2, P36762]', 'below the threshold');

Prompt line: Entry ESLLLGPSNF [SHROOM4, Q9ULL8] : reported pKd = ?
Response line: below the threshold

Prompt line: What about RAVEEEESRF [PSCDBP, O60759] ?
Response line: 5.64
